Listed below: Number of revertant colonies TA1535 values for each entry.
- Test system: Salmonella typhimurium TA1535
- EXPERIMENT: Ames test (reverse mutation test), TA1535
- Type: cell-based
- CONDITION_SUMMARY: S9 Mix −, 62 μg/plate
- Source text: Ames Test (Reverse Mutation Test) Two plates per treatment were used.
The answer should be a number; do not append a unit.

The cases that follow already have their Number of revertant colonies TA1535 on record.
CC(C)(OCc1cc(F)cc(-c2cc(N)nn2-c2ccc(F)cc2)c1)C(F)(F)F [Metabolite D]: 6
CC(C)(C)Oc1cccc(-c2cc(N)nn2-c2ccccc2)c1 [Metabolite C]: 3
Cc1ccc(-n2nc(N)cc2-c2cccc(OCC(F)(F)F)c2)cc1 [Metabolite F]: 11

compound Nc1cc(-c2cccc(OCC(F)(F)F)c2)n(-c2ccc(F)cc2)n1 [Metabolite E] , Number of revertant colonies TA1535 observed: 15

compound Cc1cccc(-n2nc(N)cc2-c2cccc(OC(F)(F)F)c2)c1 [Metabolite H] , Number of revertant colonies TA1535 observed: 14

compound Nc1cc(-c2cccc(OC(F)(F)F)c2)n(-c2cccc(F)c2)n1 [Metabolite G] , Number of revertant colonies TA1535 observed: 9

* * *

- System: Salmonella typhimurium TA1535
- EXPERIMENT: Ames test (reverse mutation test), TA1535
- Format: cell-based
- CONDITION_SUMMARY: with S9 mix; dose 21 μg/plate
Listed below: Number of revertant colonies TA1535 values for each entry.

The cases that follow already have their Number of revertant colonies TA1535 on record.
Nc1cc(-c2cc(F)cc(OC(F)(F)F)c2)n(-c2cncc(F)c2)n1 [Metabolite 3]: 9
CC(C)(C)Oc1cc(F)cc(-c2cc(N)nn2C(F)(F)F)c1 [Metabolite 1]: 6
CC(C)(C)Oc1cccc(-c2cc(N)nn2-c2ccccc2)c1 [Metabolite C]: 5

molecule Nc1cc(-c2cc(F)cc(OC(F)(F)F)c2)n(-c2cncc(C(F)(F)F)c2)n1 [Metabolite 5] , Number of revertant colonies TA1535 observed: 11

* * *

- System: Salmonella typhimurium TA1535
- EXPERIMENT: Ames test (reverse mutation test), TA1535
- Assay type: cell-based
- CONDITION_SUMMARY: with S9 mix; dose 185 μg/plate
Listed below: Number of revertant colonies TA1535 values for each entry.
The answer should be a number; do not append a unit.

The cases that follow already have their Number of revertant colonies TA1535 on record.
CC(C)(C)Oc1cc(F)cc(-c2cc(N)nn2C(F)(F)F)c1 [Metabolite 1]: 5
Nc1cc(-c2cc(F)cc(OC(F)(F)F)c2)n(-c2cncc(F)c2)n1 [Metabolite 3]: 9
Nc1cc(-c2cc(F)cc(OC(F)(F)F)c2)n(-c2cncc(C(F)(F)F)c2)n1 [Metabolite 5]: 9

Now for the molecule whose Number of revertant colonies TA1535 we want.
molecule CC(C)(C)Oc1cccc(-c2cc(N)nn2-c2ccccc2)c1 [Metabolite C] , Number of revertant colonies TA1535 observed: 5

* * *

- System: Salmonella typhimurium TA1535
- EXPERIMENT: Ames test (reverse mutation test), TA1535
- Type: cell-based
- CONDITION_SUMMARY: S9 Mix +, 556 μg/plate
Listed below: Number of revertant colonies TA1535 values for each entry.
The answer should be a number; do not append a unit.

The cases that follow already have their Number of revertant colonies TA1535 on record.
Nc1cc(-c2cccc(OCC(F)(F)F)c2)n(-c2ccc(F)cc2)n1 [Metabolite E]: 7
Cc1ccc(-n2nc(N)cc2-c2cccc(OCC(F)(F)F)c2)cc1 [Metabolite F]: 7

molecule Cc1cccc(-n2nc(N)cc2-c2cccc(OC(F)(F)F)c2)c1 [Metabolite H] , Number of revertant colonies TA1535 observed: 6

molecule Nc1cc(-c2cccc(OC(F)(F)F)c2)n(-c2cccc(F)c2)n1 [Metabolite G] , Number of revertant colonies TA1535 observed: 5

molecule CC(C)(OCc1cc(F)cc(-c2cc(N)nn2-c2ccc(F)cc2)c1)C(F)(F)F [Metabolite D] , Number of revertant colonies TA1535 observed: 7

* * *

Listed below: Number of revertant colonies TA1535 values for each entry.
- Test system: Salmonella typhimurium TA1535
- EXPERIMENT: Ames test (reverse mutation test), TA1535
- Type: cell-based
- CONDITION_SUMMARY: with S9 mix; dose 1667 μg/plate
The answer should be a number; do not append a unit.

CC(C)(C)Oc1cccc(-c2cc(N)nn2-c2ccccc2)c1 [Metabolite C]: 5
CC(C)(C)Oc1cc(F)cc(-c2cc(N)nn2C(F)(F)F)c1 [Metabolite 1]: 4
Nc1cc(-c2cc(F)cc(OC(F)(F)F)c2)n(-c2cncc(C(F)(F)F)c2)n1 [Metabolite 5]: 4

Now for the compound whose Number of revertant colonies TA1535 we want.
compound Nc1cc(-c2cc(F)cc(OC(F)(F)F)c2)n(-c2cncc(F)c2)n1 [Metabolite 3] , Number of revertant colonies TA1535 observed: 3

* * *

Listed below: Number of revertant colonies TA1535 values for each entry.
- Tested on: Salmonella typhimurium TA1535
- EXPERIMENT: Ames test (reverse mutation test), TA1535
- Format: cell-based
- CONDITION_SUMMARY: S9 Mix −, 5000 μg/plate
- Description: Ames Test (Reverse Mutation Test) Two plates per treatment were used.
The answer should be a number; do not append a unit.

CC(C)(OCc1cc(F)cc(-c2cc(N)nn2-c2ccc(F)cc2)c1)C(F)(F)F [Metabolite D]: 7
CC(C)(C)Oc1cccc(-c2cc(N)nn2-c2ccccc2)c1 [Metabolite C]: 0

molecule Nc1cc(-c2cccc(OC(F)(F)F)c2)n(-c2cccc(F)c2)n1 [Metabolite G] , Number of revertant colonies TA1535 observed: 0

molecule Cc1cccc(-n2nc(N)cc2-c2cccc(OC(F)(F)F)c2)c1 [Metabolite H] , Number of revertant colonies TA1535 observed: 4

molecule Cc1ccc(-n2nc(N)cc2-c2cccc(OCC(F)(F)F)c2)cc1 [Metabolite F] , Number of revertant colonies TA1535 observed: 0

molecule Nc1cc(-c2cccc(OCC(F)(F)F)c2)n(-c2ccc(F)cc2)n1 [Metabolite E] , Number of revertant colonies TA1535 observed: 0

* * *

- System: Salmonella typhimurium TA1535
- EXPERIMENT: Ames test (reverse mutation test), TA1535
- Assay type: cell-based
- CONDITION_SUMMARY: S9 Mix +, 185 μg/plate
QUANTITY_MEASURED: Number of revertant colonies TA1535
The answer should be a number; do not append a unit.

The cases that follow already have their Number of revertant colonies TA1535 on record.
Cc1ccc(-n2nc(N)cc2-c2cccc(OCC(F)(F)F)c2)cc1 [Metabolite F]: 13
Nc1cc(-c2cccc(OCC(F)(F)F)c2)n(-c2ccc(F)cc2)n1 [Metabolite E]: 15
CC(C)(OCc1cc(F)cc(-c2cc(N)nn2-c2ccc(F)cc2)c1)C(F)(F)F [Metabolite D]: 9

molecule Cc1cccc(-n2nc(N)cc2-c2cccc(OC(F)(F)F)c2)c1 [Metabolite H] , Number of revertant colonies TA1535 observed: 13

molecule Nc1cc(-c2cccc(OC(F)(F)F)c2)n(-c2cccc(F)c2)n1 [Metabolite G] , Number of revertant colonies TA1535 observed: 5

* * *

- Test system: Salmonella typhimurium TA1535
- EXPERIMENT: Ames test (reverse mutation test), TA1535
- Type: cell-based
- CONDITION_SUMMARY: S9 Mix −, 6.9 μg/plate
- Description: Ames Test (Reverse Mutation Test) Two plates per treatment were used.
We use 20 as the dividing line for Number of revertant colonies TA1535: on or above the line is fulfilled, below is not fulfilled.

Answered examples (5):
Nc1cc(-c2cccc(OC(F)(F)F)c2)n(-c2cccc(F)c2)n1 [Metabolite G]: not fulfilled
CC(C)(C)Oc1cccc(-c2cc(N)nn2-c2ccccc2)c1 [Metabolite C]: not fulfilled
Nc1cc(-c2cccc(OCC(F)(F)F)c2)n(-c2ccc(F)cc2)n1 [Metabolite E]: not fulfilled
Cc1ccc(-n2nc(N)cc2-c2cccc(OCC(F)(F)F)c2)cc1 [Metabolite F]: not fulfilled
CC(C)(OCc1cc(F)cc(-c2cc(N)nn2-c2ccc(F)cc2)c1)C(F)(F)F [Metabolite D]: fulfilled

Given Cc1cccc(-n2nc(N)cc2-c2cccc(OC(F)(F)F)c2)c1 [Metabolite H] , state whether its Number of revertant colonies TA1535 is at least 20.
not fulfilled

* * *

Listed below: Number of revertant colonies TA1535 values for each entry.
- Tested on: Salmonella typhimurium TA1535
- EXPERIMENT: Ames test (reverse mutation test), TA1535
- Type: cell-based
- CONDITION_SUMMARY: S9 Mix +, 5000 μg/plate
The answer should be a number; do not append a unit.

The cases that follow already have their Number of revertant colonies TA1535 on record.
Cc1cccc(-n2nc(N)cc2-c2cccc(OC(F)(F)F)c2)c1 [Metabolite H]: 3
Cc1ccc(-n2nc(N)cc2-c2cccc(OCC(F)(F)F)c2)cc1 [Metabolite F]: 0
Nc1cc(-c2cccc(OC(F)(F)F)c2)n(-c2cccc(F)c2)n1 [Metabolite G]: 4
CC(C)(OCc1cc(F)cc(-c2cc(N)nn2-c2ccc(F)cc2)c1)C(F)(F)F [Metabolite D]: 3

compound Nc1cc(-c2cccc(OCC(F)(F)F)c2)n(-c2ccc(F)cc2)n1 [Metabolite E] , Number of revertant colonies TA1535 observed: 0
